The origin of these recorded values is PubChem BioAssay.

ASSAY: inhibitors of TNFa-induced NFkB p65 translocation, primary screen, imaging, HUVEC, MLSMR starter and 10KST1 sets (AID 438);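 also: compound added about 3h40 before a 20 min TNFalpha stimulation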
CONDITION_INFO: HUVEC TNFa-induced p65 nuclear translocation; measured here: nuclei count (cytotoxicity indicator), at 2.08 µM
cell count of 400 or higher: YES. Under 400: NO.

[
  {
    "COMPOUND": "CCOC(=O)c1c(C)c(C(=O)NCC2CCCO2)c(C)n1C (stereo not drawn)",
    "CLASS_ASSIGNMENT": "NO"
  },
  {
    "COMPOUND": "O=C1c2ccccc2C(Nc2ccc3nc(-c4cccnc4)[nH]c3c2)N1Cc1ccco1 (stereo not drawn)",
    "CLASS_ASSIGNMENT": "YES"
  },
  {
    "COMPOUND": "O=c1cc(CN2CCN(c3ccc(F)cc3)CC2)nc2sccn12",
    "CLASS_ASSIGNMENT": "NO"
  },
  {
    "COMPOUND": "COCCNc1nc(SCC(=O)N2CCN(c3ccccc3)CC2)nc2ccccc12",
    "CLASS_ASSIGNMENT": "YES"
  },
  {
    "COMPOUND": "O=c1cc(CSc2nnnn2-c2ccccc2)nc2scc(-c3ccccc3)n12",
    "CLASS_ASSIGNMENT": "YES"
  },
  {
    "COMPOUND": "c1n[nH]c(SCCCCSc2ncn[nH]2)n1",
    "CLASS_ASSIGNMENT": "YES"
  },
  {
    "COMPOUND": "CCOC(=O)C1CCN(CC(=O)c2c(C)[nH]c3ccccc23)CC1",
    "CLASS_ASSIGNMENT": "YES"
  },
  {
    "COMPOUND": "CCCCCC1NC(=O)NC1CCCCCC(=O)O (stereo not drawn)",
    "CLASS_ASSIGNMENT": "YES"
  },
  {
    "COMPOUND": "COC(=O)c1cc2ccsc2n1CC(=O)N(C)c1ccccc1",
    "CLASS_ASSIGNMENT": "YES"
  },
  {
    "COMPOUND": "CCC(=O)N1CCc2cc(S(=O)(=O)CCC(=O)Nc3ccc(C)c(F)c3)ccc21",
    "CLASS_ASSIGNMENT": "YES"
  },
  {
    "COMPOUND": "CCCn1c(=O)c(C(=O)NCc2ccccn2)c(O)c2ccccc21",
    "CLASS_ASSIGNMENT": "NO"
  },
  {
    "COMPOUND": "CC(C)COC(=O)C1[C@H]2C(=O)N(Cc3cccs3)C[C@]23C=C[C@H]1O3 (stereo partly drawn)",
    "CLASS_ASSIGNMENT": "YES"
  },
  {
    "COMPOUND": "c1ccc(-c2nc3nonc3c3nc4ccccc4n23)cc1",
    "CLASS_ASSIGNMENT": "NO"
  },
  {
    "COMPOUND": "N#Cc1c(NC(=O)CSc2nnnn2C2CCCC2)sc2c1CCCC2",
    "CLASS_ASSIGNMENT": "YES"
  },
  {
    "COMPOUND": "COCCNC(=O)C(c1ccc(C)o1)N(Cc1cccs1)C(=O)c1snc(C(N)=O)c1N (stereo not drawn)",
    "CLASS_ASSIGNMENT": "NO"
  },
  {
    "COMPOUND": "COc1cc(C(=O)N2CCN(C(=O)CC(C)C)CC2)cc(OC)c1OC",
    "CLASS_ASSIGNMENT": "YES"
  },
  {
    "COMPOUND": "CC(=O)C1=C(O)C(=O)N(Cc2cccnc2)C1c1ccccc1 (stereo not drawn)",
    "CLASS_ASSIGNMENT": "YES"
  },
  {
    "COMPOUND": "Cn1c(=O)cc(SCC(=O)NCc2cccnc2)c2ccccc21",
    "CLASS_ASSIGNMENT": "YES"
  },
  {
    "COMPOUND": "CCOc1ccccc1C1N(c2ccc(F)cc2)C(=O)C2CCCN21 (stereo not drawn)",
    "CLASS_ASSIGNMENT": "YES"
  },
  {
    "COMPOUND": "COc1cccc(-c2nc(-c3ccc(NC(=O)Cc4ccccc4OC)cc3)no2)c1",
    "CLASS_ASSIGNMENT": "YES"
  },
  {
    "COMPOUND": "Cc1ccc(C)c(N2C(=O)CN=C2Nc2ccccc2Cl)c1",
    "CLASS_ASSIGNMENT": "YES"
  }
]

---

ASSAY: reduction of polyQ htt aggregates in cells – imaging, exon1htt(103Q)mCFP cells, high-content imaging, primary screen (AID 483);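 also: compound exposure lasted 3 days before fixation; percent of the per-plate median nuclei count of sample wells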
CONDITION_INFO: exon1htt(103Q)mCFP cell line, aggregate imaging, at 2 µM; measured here: cell count, toxicity
Quick list: nuclei count per entry.
ENDPOINT: nuclei count (%)

[
  {
    "COMPOUND": "Cc1ccccc1Cn1c(=O)c2c(nc3n2CCCN3Cc2ccccc2)n(C)c1=O",
    "UNIT_ABBREVIATION": "%",
    "REPORTED_RESULT": 97.8
  },
  {
    "COMPOUND": "O=C(NCc1ccccc1)N[C@@H](Cc1ccccc1)C(=O)O",
    "UNIT_ABBREVIATION": "%",
    "REPORTED_RESULT": 116
  },
  {
    "COMPOUND": "Cn1nc(-c2ccc(N3CCCCC3)c(NC(=O)c3ccco3)c2)c2ccccc2c1=O",
    "UNIT_ABBREVIATION": "%",
    "REPORTED_RESULT": 62.8
  },
  {
    "COMPOUND": "COc1ccc2c(c1)CCc1c(C(=O)N3CC4(C)CC3CC(C)(C)C4)noc1-2 (configuration not stated)",
    "UNIT_ABBREVIATION": "%",
    "REPORTED_RESULT": 98.8
  },
  {
    "COMPOUND": "COc1ccc(CC(=O)Nc2cc(Cl)ccc2O)cc1",
    "UNIT_ABBREVIATION": "%",
    "REPORTED_RESULT": 99.8
  },
  {
    "COMPOUND": "CN(C(=O)c1ccc(S(=O)(=O)NC2CCCC2)cc1)C1CCCCC1",
    "UNIT_ABBREVIATION": "%",
    "REPORTED_RESULT": 103
  },
  {
    "COMPOUND": "O=C(CSCc1n[nH]c(=O)[nH]1)NCCOc1cccc(Oc2ccccc2)c1",
    "UNIT_ABBREVIATION": "%",
    "REPORTED_RESULT": 77.7
  }
]

---

ASSAY: inhibitors of TNFa-induced NFkB p65 translocation, primary screen, imaging, HUVEC, MLSMR starter and 10KST1 sets (AID 438);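 also: compound added about 3h40 before a 20 min TNFalpha stimulation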
CONDITION_INFO: HUVEC TNFa-induced p65 nuclear translocation; measured here: nuclei count (cytotoxicity indicator), at 2.08 µM
cell count of 700 or higher: Satisfied. Under 700: Not satisfied.

[
  {
    "SMI": "CCc1cccc(NC(=O)Cn2cc3c(n2)CCCC3)c1",
    "CLASS_ASSIGNMENT": "Satisfied"
  },
  {
    "SMI": "CC(=O)Nc1ccc(-c2nn[nH]n2)cc1Cl",
    "CLASS_ASSIGNMENT": "Not satisfied"
  },
  {
    "SMI": "CCN(c1cccc(C)c1)S(=O)(=O)c1ccc2[nH]c(=O)c(=O)[nH]c2c1",
    "CLASS_ASSIGNMENT": "Not satisfied"
  },
  {
    "SMI": "CCOC(=O)Cc1csc(NC(=O)CSc2nnc(C3CC3)n2C)n1",
    "CLASS_ASSIGNMENT": "Not satisfied"
  },
  {
    "SMI": "CC(=O)N1CCc2c(sc(NC(=O)c3ccc(S(=O)(=O)N(C)C)cc3)c2C#N)C1",
    "CLASS_ASSIGNMENT": "Not satisfied"
  },
  {
    "SMI": "COCCCNCC(=O)Nc1ccc(OC(F)(F)F)cc1",
    "CLASS_ASSIGNMENT": "Not satisfied"
  }
]

---

TGT: Voltage-gated potassium channel subunit beta-2 (Rattus norvegicus) (UniProt P62483)
Sequence (P62483 whole entry, looked up): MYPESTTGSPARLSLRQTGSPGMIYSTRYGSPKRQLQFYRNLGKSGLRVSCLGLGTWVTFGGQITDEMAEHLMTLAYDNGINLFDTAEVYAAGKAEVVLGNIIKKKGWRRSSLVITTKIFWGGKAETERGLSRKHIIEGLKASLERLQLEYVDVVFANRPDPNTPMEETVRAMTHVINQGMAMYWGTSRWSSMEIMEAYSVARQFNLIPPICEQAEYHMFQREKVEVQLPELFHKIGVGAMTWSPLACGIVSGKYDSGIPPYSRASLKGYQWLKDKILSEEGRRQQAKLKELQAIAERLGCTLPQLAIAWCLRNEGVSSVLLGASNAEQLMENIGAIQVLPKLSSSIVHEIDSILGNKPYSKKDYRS
ASSAY: inhibitors of rat Kvbeta2 reductase activity – biochemical, NADPH fluorescence, primary screen (AID 622);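 also: slope of raw intensity against log time taken from 70 to 1610 s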
CONDITION_INFO: recombinant KvBeta, 4-cyanobenzaldehyde reduction, at 10 µM, stronger effect = higher value
Calls of active or inactive are those of the source.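 Rule for the calls: active = fluorescence slope higher than the sample average by over 3 SD (cut at about -0.22 in these data, passing the limit was not always enough); inactive = the rest.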

[
  {
    "COMPOUND": "Cn1c(=O)c2c(nc(NCc3ccco3)n2C/C=C/c2ccccc2)n(C)c1=O",
    "TGT": "Voltage-gated potassium channel subunit beta-2 (Rattus norvegicus) (UniProt P62483)",
    "fluorescence slope": "-0.637 (inactive)"
  },
  {
    "COMPOUND": "O=C(CCCn1c(=S)[nH]c2cc3c(cc2c1=O)OCO3)N1CCN(c2ccccc2F)CC1",
    "TGT": "Voltage-gated potassium channel subunit beta-2 (Rattus norvegicus) (UniProt P62483)",
    "fluorescence slope": "-0.501 (inactive)"
  },
  {
    "COMPOUND": "CCCCN1CN(S(=O)(=O)c2cccs2)c2nc3ccccc3nc21",
    "TGT": "Voltage-gated potassium channel subunit beta-2 (Rattus norvegicus) (UniProt P62483)",
    "fluorescence slope": "-0.393 (inactive)"
  },
  {
    "COMPOUND": "Cc1csc2nc3ccccc3c(=O)n12",
    "TGT": "Voltage-gated potassium channel subunit beta-2 (Rattus norvegicus) (UniProt P62483)",
    "fluorescence slope": "-0.579 (inactive)"
  },
  {
    "COMPOUND": "COCCCNS(=O)(=O)c1ccc2c(c1)CCN2C(C)=O",
    "TGT": "Voltage-gated potassium channel subunit beta-2 (Rattus norvegicus) (UniProt P62483)",
    "fluorescence slope": "-0.578 (inactive)"
  },
  {
    "COMPOUND": "O=c1c2cc3ccccc3n2cnn1Cc1ccccc1F",
    "TGT": "Voltage-gated potassium channel subunit beta-2 (Rattus norvegicus) (UniProt P62483)",
    "fluorescence slope": "-0.51 (inactive)"
  },
  {
    "COMPOUND": "CCC12CN3CC(CC)(CN(C1)C3c1ccc(OC(C)C)cc1)C2=O (stereo unspecified)",
    "TGT": "Voltage-gated potassium channel subunit beta-2 (Rattus norvegicus) (UniProt P62483)",
    "fluorescence slope": "-0.528 (inactive)"
  },
  {
    "COMPOUND": "CCn1cc(C(=O)NCCCOC)c(=O)c2cc(S(=O)(=O)N(C)C)ccc21",
    "TGT": "Voltage-gated potassium channel subunit beta-2 (Rattus norvegicus) (UniProt P62483)",
    "fluorescence slope": "-0.418 (inactive)"
  },
  {
    "COMPOUND": "COCCN(CCOC)C(=O)c1sc2nc(-c3ccccc3)cn2c1C",
    "TGT": "Voltage-gated potassium channel subunit beta-2 (Rattus norvegicus) (UniProt P62483)",
    "fluorescence slope": "-0.39 (inactive)"
  },
  {
    "COMPOUND": "CC1CCCN(S(=O)(=O)c2ccc(C(=O)Nc3nnc(-c4ccccc4Cl)o3)cc2)C1 (stereo unspecified)",
    "TGT": "Voltage-gated potassium channel subunit beta-2 (Rattus norvegicus) (UniProt P62483)",
    "fluorescence slope": "-0.468 (inactive)"
  },
  {
    "COMPOUND": "O=C(Nc1ccccc1)c1cccnc1N1CCOCC1",
    "TGT": "Voltage-gated potassium channel subunit beta-2 (Rattus norvegicus) (UniProt P62483)",
    "fluorescence slope": "-0.449 (inactive)"
  }
]
